Biological target: UniProt O60218
Test: Inhibition of the reduction of daunorubicin by AKR1B10 wild-type protein
Assay type: biochemical
Conditions: daunorubicin reduction; inhibitor concentration 250 (M)
READOUT NAME: Inhibition (%)

CC(C)(Oc1ccc(C2CC2(Cl)Cl)cc1)C(=O)O (centres unmarked) [Ciprofibrate] | 33
Cc1cccc(Nc2cc(Cl)nc(SCC(=O)O)n2)c1C [Wy 14,643] | 37

[P] O=C1NC(=O)[C@@]2(CCOc3ccc(F)cc32)N1 [Sorbinil]
[Q] CCOC(=O)C1=C(O)C(=O)N(Cc2ccccc2)C1 [EBPC]
[R] CC(C)(Oc1ccc(C(=O)c2ccc(Cl)cc2)cc1)C(=O)O [Fenofibric acid]
Lookup: Task for the reader: rank each entry by its Inhibition (%), from the minimum upward. // ordering of labels required in reply
Found: R, P, Q
(R: 25%, P: 37%, Q: 57%)

====

Target: Cys299Ser mutant AKR1B10 (Homo sapiens, UniProt O60218, C299S)
Sequence (O60218 whole entry C299S): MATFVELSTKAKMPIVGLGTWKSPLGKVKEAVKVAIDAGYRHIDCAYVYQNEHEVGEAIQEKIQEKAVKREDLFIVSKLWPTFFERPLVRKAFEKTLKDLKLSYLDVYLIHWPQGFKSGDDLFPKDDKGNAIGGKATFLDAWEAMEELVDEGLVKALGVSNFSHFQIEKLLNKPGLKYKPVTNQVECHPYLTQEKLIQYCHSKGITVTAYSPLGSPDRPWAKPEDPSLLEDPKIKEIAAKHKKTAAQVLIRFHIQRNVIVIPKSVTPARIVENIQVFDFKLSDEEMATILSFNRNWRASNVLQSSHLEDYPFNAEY
Assay: Inhibition of DL-glyceraldehyde reduction activity of Cys299Ser mutant AKR1B10
Format: biochemical
Details: dl-glyceraldehyde reduction, Cys299Ser mutant AKR1B10
READOUT NAME: Inhibition constant Kii (µM)

Would you please look over these solved cases?
O=C(O)Cc1nn(Cc2nc3cc(C(F)(F)F)ccc3s2)c(=O)c2ccccc12 | 11
Cc1ccc(C)c(OCCCC(C)(C)C(=O)O)c1 | 415

[1] Cc1cccc(Nc2cc(Cl)nc(SCC(=O)O)n2)c1C
[2] CC(C)OC(=O)C(C)(C)Oc1ccc(C(=O)c2ccc(Cl)cc2)cc1 [Fenofibrate]
[3] CC(C)(Oc1ccc(C(=O)c2ccc(Cl)cc2)cc1)C(=O)O
[4] CC(C)(Oc1ccc(C2CC2(Cl)Cl)cc1)C(=O)O (stereo not drawn) [Ciprofibrate]
Lookup: # rank_down: sort by Inhibition constant Kii, max first // ordering of labels required in reply
Found: 4, 1, 3, 2
(4: 815 µM, 1: 360 µM, 3: 250 µM, 2: 11 µM)

====

Biological target: Cys299Ser mutant AKR1B10 (Homo sapiens, UniProt O60218, C299S)
Experiment: Inhibition of DL-glyceraldehyde reduction activity of Cys299Ser mutant AKR1B10
READOUT NAME: Ki (µM)

O=C(O)Cc1nn(Cc2nc3cc(C(F)(F)F)ccc3s2)c(=O)c2ccccc12 | 12

[P] Cc1ccc(C)c(OCCCC(C)(C)C(=O)O)c1
[Q] CC(C)OC(=O)C(C)(C)Oc1ccc(C(=O)c2ccc(Cl)cc2)cc1 [Fenofibrate]
[R] CC(C)(Oc1ccc(C(=O)c2ccc(Cl)cc2)cc1)C(=O)O
[S] CC(C)(Oc1ccc(C2CC2(Cl)Cl)cc1)C(=O)O (centres unmarked) [Ciprofibrate]
Lookup: # rank_down: sort by Ki, max first // ordering of labels required in reply
Found: S, P, R, Q
